System: KM12
Assay: NCI tumour cell line growth inhibition, 48 h
Calls of active or inactive are those of the source. No stated cut-off is given here; in the data, active = GI50 up to about 1.1 µM and inactive = higher.
The reply should name one outcome from 1 (yes) for active, 0 (no) for inactive

[Q] Record lookup: outcome of this test for CC1=CC(=O)[C@@H](O)[C@]2(C)[C@H]3[C@@]4(O)OC[C@@]35[C@@H](C[C@@H]12)OC(=O)C(OC(=O)CC1=CCCC1)[C@H]5[C@@H](C)[C@H]4O (some centres undefined) ?
[A] 1 (yes)

[Q] GET /call?item= `Cn1c2cn[nH]c(=O)c2c2ccc3ccccc3c21` returns the recorded outcome of this test.
[A] 0 (no)

[Q] I'd appreciate the recorded outcome for `COc1cc2cc3c4c(cc(OC)c(OC)c4c2cc1OC)CCN3` from this test.
[A] 0 (no)

[Q] What outcome does the record of this test show for `[O-][n+]1c2cccc(O)c2[n+]([O-])c2cccc(O)c21` ?
[A] 0 (no)

[Q] Hello, I am checking results. What call was entered for COc1cc(C2C(Cl)C(=O)N2NC(=O)c2ccccc2O)cc(OC)c1OC (centres undefined) ?
[A] 0 (no)

[Q] For CC([C@H]1CCC2C3CCC4CC5(CC[C@]4(C)C3CC[C@@]21C)c1ccccc1C(=O)N5C)N(C)C (some centres undefined) , which call appears in the assay record?
[A] 0 (no)

[Q] Write down the call the test reported for this compound. Item: `Cc1cc(S(=O)(=O)[N-]/C(=N/S(=O)(=O)c2cc(Cl)sc2Cl)[n+]2ccc(N(C)C)cc2)c(S)cc1Cl`
[A] 0 (no)

[Q] Query: recorded result category for `O=C1O[C@]2(c3ccccc3)C(c3ccccc3)=C[C@]2(C(=O)c2ccccc2)C1=O` in this test
[A] 0 (no)

[Q] // param item: `Cc1noc(C)c1C1=CCCCc2ccccc21` ; yields the recorded call
[A] 0 (no)

* * *

Tested on: OVCAR-5
Experiment: NCI tumour cell line growth inhibition, 48 h
Active and inactive are the calls of the source. No stated cut-off is given here; in the data, active = GI50 up to about 1.1 µM and inactive = higher.
EXPERIMENTAL ENDPOINT: GI50

Lab book: GI50 of `Cc1cn([C@@H]2O[C@H](CO[Si](C)(C)C(C)(C)C)[C@]3(O[C@H]3C(=O)NO)[C@H]2O[Si](C)(C)C(C)(C)C)c(=O)[nH]c1=O` noted as 1.78 µM (inactive)

Entry `C=CCOC(=O)CC[N+]1=CCC(c2ccccc2)(c2ccccc2)O1` , GI50 reported as > 100 µM (inactive)

Summary for this compound, COCC1N=C(c2cc(OC)c(OC)c(OC)c2-c2cc3c(cc2[C@@H](C)O)OCO3)O[C@H]1c1ccccc1 (stereo partly drawn) : GI50 is > 73.8 µM (inactive)

Lab book: GI50 of COC(=O)c1cc2cc3c(c(O)c2c(=O)o1)O[C@@]1(Oc2c(O)c4c(c(O)c2[C@H]1OC1CC(OC)C(O)C(C)O1)C(=O)C=C(OC)C4=O)[C@H](O)C3 (stereo partly drawn) noted as 1.84 µM (inactive)

Memo: `Cc1cc(S(=O)(=O)[N-]/C(=N/S(=O)(=O)c2cc(Cl)sc2Cl)[n+]2ccc(N(C)C)cc2)c(S)cc1Cl` , reported GI50: 49.3 µM (inactive)

Short answer for `c1csc(-c2ccc(-c3ccc(-c4ccc(-c5cccs5)s4)s3)s2)c1` : GI50 was > 100 µM (inactive)

Form: compound = `CCOC(=O)C1=C(C)OC(=O)[C@@]2(OC)C=C(Cl)[C@@]12C` ; GI50 = > 100 µM (inactive)

Data point: `Cc1cc(N(CCC#N)CCC#N)ccc1C(/N=N/c1ccc(Cl)cc1)=N\NC(=O)c1cc(Cl)ccc1O` ; GI50 = > 100 µM (inactive)
